# experiment: AP1 Signaling Pathway (AID 357);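 note: ME-180 reporter cells stimulated with EGF at its EC50 level; % is set by controls: 0 for no effect and ±100 for the full control effect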
# conditionLabel: ME-180 (cervical carcinoma) AP-1-bla reporter, EGF-induced, beta-lactamase ratio, 5 h; at 7.69 µM (top of the series) unless noted
Inconclusive results are not listed. Active and inactive are the calls of the source. Calls come from the whole dose curve; as a rule, active = well fitted curve in either direction with a large enough effect (not every such curve was filed as active); inconclusive = small, poorly fitted or top-dose-only effect, or another doubt; inactive = flat fitted curve, though single readings scatter.
assayEndpoint: activity change, negative = inhibition

COc1ccc2[nH]cc(CCNc3cc(-c4ccccc4C)ncn3)c2c1
-2.94% (inactive)
O=c1c(-c2cccs2)nc2cncnc2n1C1CC1
0.545% (inactive)
NC(=O)OC[C@H](O)COc1ccc(Cl)cc1
-4.9% [at 17.2 µM] (inactive)

Lab note: measured activity change, negative = inhibition of CN1CCN(c2ncc3nc(-c4cccc(C#N)c4)c(=O)n(CCC#N)c3n2)CC1 was -12.4% (inactive)

Lab note: measured activity change, negative = inhibition of N#Cc1cccc(NC(=O)N2CCCC3(CCN(C(=O)c4cccc(F)c4)CC3)C2)c1 was -6.98% (inactive)

Lab note: measured activity change, negative = inhibition of COc1ccc2[nH]cc(CCNc3ccnc(-c4ccc5c(c4)OCO5)n3)c2c1 was -11.1% (inactive)

Lab note: measured activity change, negative = inhibition of COCCn1c(=O)c(CCc2ccccc2)nc2cnc(Nc3ccccc3)nc21 was 16.9% (inactive)

Lab note: measured activity change, negative = inhibition of CC(C)(O/N=C(\C(=O)N[C@@H]1C(=O)N2C(C(=O)[O-])=C(C[n+]3ccccc3)CS[C@@H]12)c1csc(N)n1)C(=O)O was 8.59% [at 17.2 µM] (inactive)

Lab note: measured activity change, negative = inhibition of COc1cccc(-c2nccc(NCc3cccs3)n2)c1 was -9.78% (inactive)

Lab note: measured activity change, negative = inhibition of COCC(=O)N1CCC2(CC1)CN(c1ccc(-c3ccccc3)cc1)C2 was 2.14% (inactive)

Lab note: measured activity change, negative = inhibition of Cn1cccc1C(=O)N1CCC2(CC1)CN(c1ccccn1)C2 was 2.02% (inactive)

Lab note: measured activity change, negative = inhibition of COc1cccc(-c2nccc(NCc3cccnc3)n2)c1 was -20.9% (inactive)

Lab note: measured activity change, negative = inhibition of Clc1ccccc1-c1nc(NCc2cccnc2)c2ccccc2n1 was -8.93% (inactive)

Lab note: measured activity change, negative = inhibition of CCNc1ncc2nc(-c3cccc(C#N)c3)c(=O)n(C)c2n1 was 15.2% (inactive)

Lab note: measured activity change, negative = inhibition of O=C(c1csnn1)N1CCC2(CC1)CCN(c1cccc(-c3ccccc3)c1)CC2 was -21.7% (inactive)

Lab note: measured activity change, negative = inhibition of Cn1c(=O)c(CCc2ccccc2)nc2cnc(Oc3ccccc3)nc21 was -15.2% (inactive)

Lab note: measured activity change, negative = inhibition of CCCN[C@@H](C)C(=O)Nc1c(C)csc1C(=O)OC was 8.34% [at 17.2 µM] (inactive)

Lab note: measured activity change, negative = inhibition of O=C(c1cccc(F)c1)N1CCC2(CC1)CN(c1ncccn1)C2 was 1.82% (inactive)
